Hey, just so you know, these numbers are from the supplement of paper PMC11451515.

tested on: NOMO1; test: cell viability relative to DMSO control; higher = less cytotoxic; settings: HPLM + 10% dialyzed FBS; 48 h; 15.4 µM
Recorded measurements of cell viability, one per entry
Record the value in %, omitting the unit from your answer.

Below: 3 molecules and their reported cell viability.
1. O=C1\C=C/C=C2/[C@H]3CNC[C@H](C3)CN12 = 97.9
2. O=C(CCCCCCC(=O)Nc1cccnc1)NO = 70.5
3. NC(=O)[C@H]1CCS[C@@H]2C[C@]3(CCCN3C(=O)Cc3ccc(NC(=O)COc4ccc(Cl)cc4Cl)cc3)C(=O)N12 = 42.3

In: So what's the measured cell viability for this one? `COc1cc([C@@H](CC(=O)O)c2ccc(C)c(CN3C[C@@H](C)Oc4ccccc4[S+]3(=O)[O-])c2)cc2nnn(C)c12`
Out: 30.3

In: Fill in: cell viability of CCCC(C)(COC(N)=O)COC(=O)NC(C)C (configuration not stated) is ___
Out: 141

In: So what does the record say about cell viability for COc1ccc(C(CN(C)C)C2(O)CCCCC2)cc1 (configuration not stated) ?
Out: 94.5

In: What value of cell viability has been reported for the following molecule? `CC(C)=CCC/C(C)=C/CC/C(C)=C/CSc1ccccc1C(=O)O`
Out: 57.4

In: Please look up its cell viability: `COc1cc2ncn(-c3cc(OCc4ccccc4[S+](C)(=O)[O-])c(C#N)s3)c2cc1OC`
Out: 81.2

In: Sample `N\C1=N\C2=C(N=C[N]2COCCO)C(=O)N1` — what was its cell viability?
Out: 102

In: Look up cell viability for this molecule: CC\12CCC(=O)\C=C1CCC3C2CCC4(C)C3CCC4(O)C#C (configuration not stated)
Out: 86.4

In: Request the reported cell viability associated with `CC(C)=CCC/C(C)=C/CC/C(C)=C/CC/C(C)=C/CC/C(C)=C/CC/C(C)=C/CC/C(C)=C/CC/C(C)=C/CC/C(C)=C/CO`
Out: 96.6

In: What value of measured cell viability is listed for CCOC(=O)C(C#N)C\1C2=CC(=CC=C2O\C(=C1C(=O)OCC)N)Br (configuration not stated) ?
Out: 92.4
